From: PubChem BioAssay AID383

# Assay System: UniProt P49761
# Protocol Text: CLK3 binders by thermal stabilization, biophysical, thermal shift, recombinant protein (AID 383)
# Assay Context: at 10 µM, protein 2 µM, buffer 10 mM HEPES, pH 7.5, NaCl 150 mM, active compounds read high
Task for the reader: assign each of the following compounds its reported Tm shift.

CCC(CO)Nc1ccc2ncc(-c3cccc(C(C)=O)c3)n2n1 (stereo not given): 3.42 Celsius
Clc1cccc(Nc2ccn3ncc(-c4ccc5c(c4)OCO5)c3n2)c1: 6.07 Celsius
Nc1ccc(-c2cnn3ccc(Nc4cccc(Cl)c4)nc23)cc1: 3.58 Celsius
N#Cc1ccc(-c2cnc3ccc(NC4CCOCC4)nn23)cc1: 3.76 Celsius

Please look at the items below and tell me Tm shift for each one, in order.
1. CCC(CO)Nc1ccc2ncc(-c3cccc(OC(F)(F)F)c3)n2n1 (stereo not given)
2. COc1cccc(-c2cnn3ccc(Nc4cccc(Cl)c4)nc23)c1
3. CC(C)[C@@H](CO)Nc1ccc2ncc(-c3cccc(O)c3)n2n1
4. CCC(CO)Nc1ccc2ncc(-c3ccc(OC)nc3)n2n1 (stereo not given)
5. CC(C)[C@@H](CO)Nc1ccc2ncc(-c3cccc(OC(F)(F)F)c3)n2n1
6. CCC(CO)Nc1ccc2ncc(-c3ccc(F)c(Cl)c3)n2n1 (stereo not given)

OUT:
["3.66 Celsius", "4.61 Celsius", "4.02 Celsius", "4.48 Celsius", "4.02 Celsius", "3.6 Celsius"]

---

# Assay System: Dual specificity protein kinase CLK3 (Homo sapiens)
# Protocol Text: CLK3 binders by thermal stabilization, biophysical, thermal shift, recombinant protein (AID 383)
# Assay Context: at 10 µM, protein 2 µM, buffer 50 mM HEPES, pH 7.5, NaCl 500 mM, active compounds read high
Task for the reader: assign each of the following compounds its reported Tm shift.

O=C1C(=O)C(c2cc(O)c(O)c(O)c2)Oc2cc(O)cc(O)c21 (stereo unspecified): 3.08 Celsius
O=c1c(O)c(-c2cc(O)c(O)c(O)c2)oc2cc(O)cc(O)c12: 3.25 Celsius
CCN1/C(=C/C(C)=O)Sc2ccc(OC)cc21: 3.16 Celsius
NCCCn1cc(C2=C(c3c[nH]c4ccccc34)C(=O)NC2=O)c2ccccc21: 3.18 Celsius
O=c1cc(-c2ccc(O)c(O)c2)oc2cc(O)cc(O)c12: 4.28 Celsius

IN: Output measured Tm shift for this item: O=c1c(O)c(-c2ccc(O)c(O)c2)oc2cc(O)cc(O)c12
OUT: 3.12 Celsius

---

# Assay System: Dual specificity protein kinase CLK3 (Homo sapiens) (UniProt P49761)
# Sequence (P49761 whole entry, looked up): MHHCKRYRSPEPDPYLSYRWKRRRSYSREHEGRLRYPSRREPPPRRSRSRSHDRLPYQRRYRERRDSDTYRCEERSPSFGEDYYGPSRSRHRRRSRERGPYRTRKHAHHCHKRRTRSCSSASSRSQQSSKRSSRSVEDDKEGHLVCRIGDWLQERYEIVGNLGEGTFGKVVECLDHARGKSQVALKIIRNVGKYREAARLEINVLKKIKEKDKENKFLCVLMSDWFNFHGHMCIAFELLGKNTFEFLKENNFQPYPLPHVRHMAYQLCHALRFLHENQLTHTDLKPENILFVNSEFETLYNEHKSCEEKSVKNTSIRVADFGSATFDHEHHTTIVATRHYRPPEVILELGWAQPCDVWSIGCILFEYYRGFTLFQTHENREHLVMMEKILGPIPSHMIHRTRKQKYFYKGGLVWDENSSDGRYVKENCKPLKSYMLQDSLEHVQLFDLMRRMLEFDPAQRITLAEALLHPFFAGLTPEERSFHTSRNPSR
# Protocol Text: CLK3 binders by thermal stabilization, biophysical, thermal shift, recombinant protein (AID 383)
# Assay Context: at 10 µM, protein 1.8 µM, buffer 10 mM HEPES, pH 7.5, NaCl 150 mM, with 50 µM L-Arg/L-Glu (1:1), active compounds read high
Metric: Tm shift

Worked cases, Tm shift given:
CN(C)S(O)(O)c1ccc2c(c1)/C(=C/c1cc3c([nH]1)CCCC3)C(=O)N2: 4.1 Celsius
CC1N=C2SC=CN2C(=O)C1CCN1CCC(=C(c2ccccc2)c2ccc(F)cc2)CC1 (configuration not stated): 3.8 Celsius
Nc1ncnc2c1c(I)cn2[C@@H]1O[C@H](CO)C(O)C1O (some centres not stated): 7.5 Celsius
COc1cc(/C=C/C(=O)CC(=O)/C=C/c2ccc(O)c(OC)c2)ccc1O: 5.3 Celsius
Cc1c2ccncc2c(C)c2c1[nH]c1ccccc12: 4.2 Celsius

Please look at the items below and tell me Tm shift for each one, in order.
1. CN(C)CCCn1cc(C2=C(c3c[nH]c4ccccc34)C(=O)NC2=O)c2ccccc21
2. Cn1cc(/C=C2\C(=O)Nc3ccc(S(N)(=O)=O)cc32)c2ccccc21
3. CC(C)n1cnc2c(Nc3cccc(Cl)c3)nc(NCCO)nc21
4. O=Nc1c(-c2c(O)[nH]c3ccccc23)[nH]c2ccccc12
5. NC(=O)c1ccc(-c2nc(-c3ccc4c(c3)OCCO4)c(-c3ccccn3)[nH]2)cc1
6. O=c1cc(-c2ccc(O)cc2)oc2cc(O)cc(O)c12
7. NC1=N/C(=C2/CCNC(=O)c3[nH]c(Br)cc32)C(=O)N1

OUT:
1: 3.5 Celsius; 2: 3.2 Celsius; 3: 4.6 Celsius; 4: 4.6 Celsius; 5: 4.8 Celsius; 6: 3.1 Celsius; 7: 7.2 Celsius
